B1: ZNF263 (parent)
chain: RTHTGEKPYKCTLCGENFSHRSNL

# Variants of: B1
# ASSAY COMMENT: protein stability index of a GFP-peptide fusion (GPS, HEK-293T) (PSI 1-6); higher = more stable;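 further: lentivirally expressed fusions sorted by FACS into six bins by GFP to DsRed ratio, PSI derived from sequencing read proportions per bin multiplied by bin number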
# EXPERIMENTAL CONDITIONS: c terminus: a fixed tail appended
PARAMETER MEASURED: protein stability index
Form: value (number only, do not type unit).

Look up protein stability index of "STHTGEKPYKCTLCGENFSHRSNL" and report it.
1.89

Look up protein stability index of "RTHTGEKPYKCTLQGENFSHRSNL" and report it.
3.45

Look up protein stability index of "RTHTREKPYKCTLCGENFSHRSNL" and report it.
2.2

Look up protein stability index of "RTHPGEKPYKCTLCGENFSHRSNL" and report it.
2.34

Look up protein stability index of "RTHTGDKPYKCTLCGENFSHRSNL" and report it.
2.37

Look up protein stability index of "RTHTGEKPYKCILCGENFSHRSNL" and report it.
1.92

Look up protein stability index of "RTHTGEKPYKVTLCGENFSHRSNL" and report it.
2.51

Look up protein stability index of "KTHTGEKPYKCTLCGENFSHRSNL" and report it.
2.22

Look up protein stability index of "RTHTGEKPYKCTLCGDNFSHRSNL" and report it.
1.93

Look up protein stability index of "RTHTGSKPYKCTLCGENFSHRSNL" and report it.
2.39

Look up protein stability index of "RDHTGEKPYKCTLCGENFSHRSNL" and report it.
2

Look up protein stability index of "RTHTGEKPYKRTLCGENFSHRSNL" and report it.
2.81

Look up protein stability index of "RTPTGEKPYKCTLCGENFSHRSNL" and report it.
2

Look up protein stability index of "RTHTGEKPYGCTLCGENFSHRSNL" and report it.
2.06

Look up protein stability index of "RTHTGEKPYKCTLCGENYSHRSNL" and report it.
1.91

Look up protein stability index of "RTHTGEKPYKCTLCGENFSHRSML" and report it.
2.03

Look up protein stability index of "RTHTGEKPYKCNLCGENFSHRSNL" and report it.
2.44

Look up protein stability index of "RTHTGEKPYKCTLCGENFSHRGNL" and report it.
2.14

Look up protein stability index of "RTHTGEKPYKCHLCGENFSHRSNL" and report it.
1.68

Look up protein stability index of "RTHTGEKPYKCTLCKENFSHRSNL" and report it.
2.13

Look up protein stability index of "HTHTGEKPYKCTLCGENFSHRSNL" and report it.
3.08

Look up protein stability index of "RTHTGEKPYKCTLCGENQSHRSNL" and report it.
2.1
